Hi! I'm sharing some pIC50 results obtained with UniProt Q9UM07.
Sequence (Q9UM07 whole entry): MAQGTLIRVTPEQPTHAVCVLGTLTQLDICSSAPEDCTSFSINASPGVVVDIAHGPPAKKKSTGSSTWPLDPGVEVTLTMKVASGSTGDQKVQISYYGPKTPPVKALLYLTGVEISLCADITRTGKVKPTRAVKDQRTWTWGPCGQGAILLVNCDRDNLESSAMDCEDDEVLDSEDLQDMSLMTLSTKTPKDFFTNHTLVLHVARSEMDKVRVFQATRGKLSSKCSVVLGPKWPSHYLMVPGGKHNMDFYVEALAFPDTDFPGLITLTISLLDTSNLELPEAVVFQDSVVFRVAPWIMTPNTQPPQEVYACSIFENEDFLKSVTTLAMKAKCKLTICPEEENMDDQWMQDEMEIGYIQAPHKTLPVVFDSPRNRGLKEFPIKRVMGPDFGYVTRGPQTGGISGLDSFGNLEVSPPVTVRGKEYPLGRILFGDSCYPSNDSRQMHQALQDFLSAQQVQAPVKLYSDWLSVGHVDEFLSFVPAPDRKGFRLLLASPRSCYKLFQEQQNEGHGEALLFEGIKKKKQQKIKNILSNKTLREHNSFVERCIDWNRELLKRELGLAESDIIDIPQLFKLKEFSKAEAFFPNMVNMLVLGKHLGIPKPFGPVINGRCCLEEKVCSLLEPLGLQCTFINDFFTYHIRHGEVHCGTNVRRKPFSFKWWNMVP
Please express pIC50 as -log10 of the molar concentration.

// solved cases for pIC50 follow
COc1cc(C(=O)N2C[C@H](N)CC[C@@H]2C)cc2nc(-c3cc4ccc(-c5cccnc5-c5cccnc5Cl)nc4n3CC3CC3)n(C)c12 : 6.61
COc1cc(C(=O)N2[C@H]3CC[C@@H]2[C@H](N)C3)cc2nc(-c3cc4ccc([C@@H](C)NC(=O)C56CC(F)(C5)C6)c(F)c4n3CC3CC3)n(C)c12 : 6.64
COc1cc(C(=O)N2[C@H]3CC[C@@H]2[C@H](N)C3)cc2nc(-c3cc4ccc([C@@H](C)NC(=O)N5CC(F)(F)C5)nc4n3CC3CC3)n(C)c12 : 7.54

Now look at this entry.
Which pIC50 value is on record for COc1cc(C(=O)N2C[C@H](N)CC[C@@H]2C)cc2nc(-c3cc4ccc(N5C(=O)CC[C@H]5C)nc4n3CC3CC3)n(C)c12 ?
5.91
